Biological target: T1, LIN28A CSD (mouse, UniProt Q8K3Y3 16-136)
T1 sequence: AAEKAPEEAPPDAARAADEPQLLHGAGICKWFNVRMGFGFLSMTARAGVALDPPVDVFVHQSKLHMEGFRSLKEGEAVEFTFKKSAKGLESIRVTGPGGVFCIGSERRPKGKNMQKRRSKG
Experiment: SPR
Measured quantity: Kd (nM)
Entry rule: numbers only, all in nM.

Lab note: GGGGUAGUGAUUUUACCCUGUUUAGGAGAU (structured_RNA) [preE-let-7f-1 biotin] gave Kd of 808

The origin of these recorded values is paper PMC13247719.
